targetOrTestSystem: Human 5-HT1A receptor (Homo sapiens, UniProt P08908)
Sequence (P08908 whole entry): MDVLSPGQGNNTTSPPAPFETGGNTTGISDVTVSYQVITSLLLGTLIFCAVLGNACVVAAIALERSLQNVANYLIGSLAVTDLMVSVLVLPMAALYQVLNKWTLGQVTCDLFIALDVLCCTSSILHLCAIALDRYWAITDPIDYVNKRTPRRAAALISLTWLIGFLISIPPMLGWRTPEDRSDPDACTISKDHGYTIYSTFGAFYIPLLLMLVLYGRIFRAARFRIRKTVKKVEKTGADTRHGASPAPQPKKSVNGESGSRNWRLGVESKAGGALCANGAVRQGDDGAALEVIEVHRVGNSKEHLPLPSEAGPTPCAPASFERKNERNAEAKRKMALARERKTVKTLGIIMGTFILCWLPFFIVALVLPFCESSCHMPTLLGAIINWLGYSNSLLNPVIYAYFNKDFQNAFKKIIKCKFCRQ
procedureSummary: cAMP secondary messenger pathway assay (HitHunter cAMP, Gi agonist mode)
particulars: CHO cells, forskolin present, read-out: EC50 5-HT1A (Gi signaling)
Protocol: cAMP Secondary Messenger Pathway Assay Method (Performed by DiscoveRx Eurofins) DiscoverX has developed a panel of cell lines stably expressing non-tagged GPCRs that signal through cAMP. […] Active enzyme can then convert a chemiluminescent substrate, generating an output signal detectable on a standard microplate reader. […] Compound activity was analyzed using CBIS data analysis suite (ChemInnovation, CA). […]
parameter: pEC50
Scale explanation: pEC50 corresponds to minus log10 of a concentration expressed in moles per litre.

Task: Requested field: pEC50. Item: COc1cc(C)c(OC)c2c1CC(N)CC2 (stereo not shown)
Output: 6.36

Entry source: patent US11827580B2
